Listing of recorded Population Membrane Permeable-Phenotype (%) by entry.
- System: U2OS
- method description: Multiplex assay against U2OS
- Assay type: toxicity, cell-based
- assay setup: human, 24 h, 10 µM, compound concentration 10 uM, replicate 2
measured parameter: Population Membrane Permeable-Phenotype (%)

smiles entry | test result
Cc1cccc(NC(=O)CN2CCC(c3ccccn3)CC2)c1.Cl.Cl | 17
N#Cc1c(Oc2cccc(OS(=O)(=O)CCCC(F)(F)F)c2)cccc1C(F)(F)F | 11
CCCCC(=O)N(Cc1ccc(-c2ccccc2-c2nnn[nH]2)cc1)[C@H](C(=O)O)C(C)C | 4
CCCOc1ccc2[nH]cc(C3=CCNCC3)c2n1.Cl | 11
N#Cc1cc(F)cc(-c2nc(-c3ccc(F)cn3)no2)c1 | 5
Cc1cnc(-c2cc(N3CCN(C(=O)CCS(C)(=O)=O)CC3)ncc2Cl)c(C)c1 | 18
Cc1noc(-c2ccc(-c3ccc(CC(=O)O)cc3)cc2)c1NC(=O)O[C@H](C)c1ccccc1Cl | 7
COc1cccc2c1c(NS(=O)(=O)c1ccc(Cl)s1)nn2Cc1cccc(CNC(=O)C(C)(C)O)c1 | 8
CC(C)(C)c1cc(NC(=O)Nc2ccc(-c3cn4c(n3)sc3cc(OCCN5CCOCC5)ccc34)cc2)no1 | 40

---

Listing of recorded Population Membrane Permeable-Phenotype (%) by entry.
- Tested on: U2OS
- method description: Multiplex assay against U2OS
- Type: toxicity, cell-based
- assay setup: human, 24 h, 1 µM, compound concentration 1 uM, replicate 1
measured parameter: Population Membrane Permeable-Phenotype (%)

compound | test result
Cc1c(CC(=O)O)c2cccnc2n1Cc1ccc(S(C)(=O)=O)cc1C(F)(F)F [FEVIPIPRANT] | 1
CCCOc1ccc2[nH]cc(C3=CCNCC3)c2n1.Cl | 6
Cc1cccc(NC(=O)CN2CCC(c3ccccn3)CC2)c1.Cl.Cl | 5
CCCCC(=O)N(Cc1ccc(-c2ccccc2-c2nnn[nH]2)cc1)[C@H](C(=O)O)C(C)C | 5
N#Cc1cc(F)cc(-c2nc(-c3ccc(F)cn3)no2)c1 | 8
Cc1onc(-c2ccccc2Cl)c1C(=O)N(C)c1ccc(Cl)cc1 | 2
Cl.N=C(N)NC(=O)Cc1c(Cl)cccc1Cl [GUANFACINE HYDROCHLORIDE] | 5

---

- System: Fibroblast
- method description: Multiplex assay against human fibroblast
- Type: toxicity, cell-based
- assay setup: 12 h, 1 µM, compound concentration 1 uM, replicate 2
measured parameter: Population Hoechst High Intensity Objects (%)

compound | units text | test result
O=C(CCCc1ccccc1)Nc1nc2ccccc2c(=O)s1 | % | 3
CN(C)C(=O)Cn1cc(-c2ccc(-c3cncc4ccccc34)cc2)cn1 | % | 5
Cc1sc2c(c1C)C(c1ccc(Cl)cc1)=N[C@@H](CC(=O)NCCCCCCCCNC(=O)COc1cccc3c1C(=O)N(C1CCC(=O)NC1=O)C3=O)c1nnc(C)n1-2 (some centres undefined) | % | 6
CC[C@@H](C)Nc1nc(C)nc2c(-c3ccc(OC)nc3C)c(C)nn12 | % | 2
CC(=O)Nc1cccc2c1c(Sc1ccc(Cl)cc1)c(C)n2CC(=O)O | % | 3
N#Cc1cc(F)cc(-c2nc(-c3ccc(F)cn3)no2)c1 | % | 6
Cc1cnc(-c2cc(N3CCN(C(=O)CCS(C)(=O)=O)CC3)ncc2Cl)c(C)c1 | % | 9
CCCCC(=O)N(Cc1ccc(-c2ccccc2-c2nnn[nH]2)cc1)[C@H](C(=O)O)C(C)C | % | 3
CC(C)c1noc(N2CCC(COc3ccc(-c4ccc(S(C)(=O)=O)cc4)nc3)CC2)n1 | % | 6

---

Listing of recorded Population Mitochondria Different-Phenotype (%) by entry.
- Test system: HEK-293T
- method description: Multiplex assay against HEK293T
- Format: toxicity, cell-based
- assay setup: human, 24 h, 1 µM, compound concentration 1 uM, replicate 1
measured parameter: Population Mitochondria Different-Phenotype (%)

compound | test result
CN1CCN(c2cc(-c3ccccc3)nc(N)n2)CC1 | 16
Cc1sc2c(c1C)C(c1ccc(Cl)cc1)=N[C@@H](CC(=O)NCCCCCCCCNC(=O)COc1cccc3c1C(=O)N(C1CCC(=O)NC1=O)C3=O)c1nnc(C)n1-2 (some centres undefined) | 58
CC(C)(C)c1cc(NC(=O)Nc2ccc(-c3cn4c(n3)sc3cc(OCCN5CCOCC5)ccc34)cc2)no1 [QUIZARTINIB] | 26
O=C(CCCc1ccccc1)Nc1nc2ccccc2c(=O)s1 | 21

---

- System: U2OS
- method description: Multiplex assay against U2OS
- Type: toxicity, cell-based
- assay setup: human, 48 h, 10 µM, compound concentration 10 uM, replicate 1
measured parameter: Population Hoechst High Intensity Objects (%)

compound | units text | test result
CN1CCN(c2cc(-c3ccccc3)nc(N)n2)CC1 | % | 1
COc1ccccc1N1CCN(C[C@@H](C(=O)NC(C)(C)C)c2ccccc2)CC1.Cl.Cl | % | 4
CCCOc1ccc2[nH]cc(C3=CCNCC3)c2n1.Cl | % | 4
CC(C)COc1ccc(CNC(=O)N(Cc2ccc(F)cc2)C2CCN(C)CC2)cc1 | % | 13
CCCCC1=NC2(CCCC2)C(=O)N1Cc1ccc(-c2ccccc2-c2nnn[nH]2)cc1 | % | 3
N#Cc1cc(F)cc(-c2nc(-c3ccc(F)cn3)no2)c1 | % | 1
Br.CS(=O)(=O)Nc1c(O)ccc2c1CCCC2C1=NCCN1 (configuration not stated) | % | 1

---

Listing of recorded Total Cell Count by entry.
- Test system: U2OS
- method description: Multiplex assay against U2OS
- Format: toxicity, cell-based
- assay setup: human, 24 h, 10 µM, compound concentration 10 uM, replicate 1

compound | Total Cell Count
N#Cc1c(Oc2cccc(OS(=O)(=O)CCCC(F)(F)F)c2)cccc1C(F)(F)F | 252
Cc1onc(-c2ccccc2Cl)c1C(=O)N(C)c1ccc(Cl)cc1 | 299
CCCCCC(O)/C=C/[C@H]1C(=O)CC(O)C1C/C=C\CCCC(=O)O (some centres undefined) | 216
Cc1cccc(NC(=O)CN2CCC(c3ccccn3)CC2)c1.Cl.Cl | 243
Cc1noc(-c2ccc(-c3ccc(CC(=O)O)cc3)cc2)c1NC(=O)O[C@H](C)c1ccccc1Cl | 260
CC(/C=C1\SC(=S)N(CCCC(=O)Nc2ccc(C(=O)O)c(O)c2)C1=O)=C\c1ccccc1 | 298
CN(C)C(=O)Cn1cc(-c2ccc(-c3cncc4ccccc34)cc2)cn1 | 244
CCCCC1=NC2(CCCC2)C(=O)N1Cc1ccc(-c2ccccc2-c2nnn[nH]2)cc1 | 301
Cc1cnc(-c2cc(N3CCN(C(=O)CCS(C)(=O)=O)CC3)ncc2Cl)c(C)c1 | 309
Cc1c(CC(=O)O)c2cccnc2n1Cc1ccc(S(C)(=O)=O)cc1C(F)(F)F | 326
N#Cc1cc(F)cc(-c2nc(-c3ccc(F)cn3)no2)c1 | 230
CCCOc1ccc2[nH]cc(C3=CCNCC3)c2n1.Cl | 323
CC(C)COc1ccc(CNC(=O)N(Cc2ccc(F)cc2)C2CCN(C)CC2)cc1 | 214
CCc1cc2cc(NS(=O)(=O)c3ccc(C#N)cc3)ccc2n(CC)c1=O | 263
O=C1[C@H](Cc2ccc(O)cc2)N2C(=O)CCN(C(=O)NCc3ccccc3)[C@H]2CN1Cc1cccc2ccccc12 | 214
NCCc1cn(S(=O)(=O)c2c(Cl)nc3sccn23)c2ccccc12.O=C(O)C(=O)O | 240
Cl.NCCc1ccc(O)c(O)c1 [DOPAMINE HYDROCHLORIDE] | 245
CCCCC(=O)N(Cc1ccc(-c2ccccc2-c2nnn[nH]2)cc1)[C@H](C(=O)O)C(C)C | 272
Cc1sc2c(c1C)C(c1ccc(Cl)cc1)=N[C@@H](CC(=O)NCCCCCCCCNC(=O)COc1cccc3c1C(=O)N(C1CCC(=O)NC1=O)C3=O)c1nnc(C)n1-2 (some centres undefined) | 245

---

- Test system: Fibroblast
- method description: Multiplex assay against human fibroblast
- Assay type: toxicity, cell-based
- assay setup: 12 h, 10 µM, compound concentration 10 uM, replicate 1
Listing of recorded Population Hoechst High Intensity Objects (%) by entry.
measured parameter: Population Hoechst High Intensity Objects (%)

compound | target system | test result
CN(C)C(=O)Cn1cc(-c2ccc(-c3cncc4ccccc34)cc2)cn1 | Fibroblast | 4%
CC(/C=C1\SC(=S)N(CCCC(=O)Nc2ccc(C(=O)O)c(O)c2)C1=O)=C\c1ccccc1 | Fibroblast | 2%
CCCCCC(O)/C=C/[C@H]1C(=O)CC(O)C1C/C=C\CCCC(=O)O (some centres undefined) | Fibroblast | 0%
Cl.N=C(N)NC(=O)Cc1c(Cl)cccc1Cl [GUANFACINE HYDROCHLORIDE] | Fibroblast | 0%
CCCCC1=NC2(CCCC2)C(=O)N1Cc1ccc(-c2ccccc2-c2nnn[nH]2)cc1 [IRBESARTAN] | Fibroblast | 3%
Cc1cccc(NC(=O)CN2CCC(c3ccccn3)CC2)c1.Cl.Cl | Fibroblast | 10%
Br.CS(=O)(=O)Nc1c(O)ccc2c1CCCC2C1=NCCN1 (centres undefined) | Fibroblast | 6%
Cc1c(CC(=O)O)c2cccnc2n1Cc1ccc(S(C)(=O)=O)cc1C(F)(F)F [FEVIPIPRANT] | Fibroblast | 3%
Cc1onc(-c2ccccc2Cl)c1C(=O)N(C)c1ccc(Cl)cc1 | Fibroblast | 2%
CC[C@@H](C)Nc1nc(C)nc2c(-c3ccc(OC)nc3C)c(C)nn12 [PEXACERFONT] | Fibroblast | 2%
NCCc1cn(S(=O)(=O)c2c(Cl)nc3sccn23)c2ccccc12.O=C(O)C(=O)O | Fibroblast | 6%
CCc1cc2cc(NS(=O)(=O)c3ccc(C#N)cc3)ccc2n(CC)c1=O | Fibroblast | 1%
CCCCC(=O)N(Cc1ccc(-c2ccccc2-c2nnn[nH]2)cc1)[C@H](C(=O)O)C(C)C | Fibroblast | 0%
Cl.NCCc1ccc(O)c(O)c1 [DOPAMINE HYDROCHLORIDE] | Fibroblast | 3%
CN[C@@H](C)C(=O)N[C@H](C(=O)N1CCC[C@H]1C(=O)Nc1snnc1-c1ccccc1)C1CCCCC1 [GDC-0152] | Fibroblast | 6%
COc1cccc2c1c(NS(=O)(=O)c1ccc(Cl)s1)nn2Cc1cccc(CNC(=O)C(C)(C)O)c1 | Fibroblast | 2%
COC[C@@H](c1ccc(C(F)(F)F)cc1)N1CCN(C2(C)CCN(C(=O)c3c(C)ncnc3C)CC2)C[C@@H]1C.O=C(O)/C=C\C(=O)O [VICRIVIROC MALEATE] | Fibroblast | 17%
O=C(NCCN1CCC(n2c(=O)[nH]c3cc(Cl)ccc32)CC1)c1ccc(F)cc1 [HALOPEMIDE] | Fibroblast | 3%
CC(C)(C)c1cc(NC(=O)Nc2ccc(-c3cn4c(n3)sc3cc(OCCN5CCOCC5)ccc34)cc2)no1 [QUIZARTINIB] | Fibroblast | 3%
CC(C)c1noc(N2CCC(COc3ccc(-c4ccc(S(C)(=O)=O)cc4)nc3)CC2)n1 [GSK-1292263] | Fibroblast | 3%
Cc1cnc(-c2cc(N3CCN(C(=O)CCS(C)(=O)=O)CC3)ncc2Cl)c(C)c1 | Fibroblast | 4%
CCCOc1ccc2[nH]cc(C3=CCNCC3)c2n1.Cl | Fibroblast | 4%
N#Cc1cc(F)cc(-c2nc(-c3ccc(F)cn3)no2)c1 | Fibroblast | 1%
O=C(CCCc1ccccc1)Nc1nc2ccccc2c(=O)s1 | Fibroblast | 2%
CN1CCN(c2cc(-c3ccccc3)nc(N)n2)CC1 | Fibroblast | 2%
Cc1noc(-c2ccc(-c3ccc(CC(=O)O)cc3)cc2)c1NC(=O)O[C@H](C)c1ccccc1Cl | Fibroblast | 1%
Cc1sc2c(c1C)C(c1ccc(Cl)cc1)=N[C@@H](CC(=O)NCCCCCCCCNC(=O)COc1cccc3c1C(=O)N(C1CCC(=O)NC1=O)C3=O)c1nnc(C)n1-2 (some centres undefined) | Fibroblast | 11%
CC(C)COc1ccc(CNC(=O)N(Cc2ccc(F)cc2)C2CCN(C)CC2)cc1 [PIMAVANSERIN] | Fibroblast | 1%
N#Cc1c(Oc2cccc(OS(=O)(=O)CCCC(F)(F)F)c2)cccc1C(F)(F)F | Fibroblast | 6%
